Entry source: paper PMC12040169

- Method notes: in vitro
- Test settings: human, hela cells, % viability
Readout name: viability at 28.5 h, 10 µM (%)
Report as a plain number; the unit % is understood.

Use these answered entries as a reference point.
{"Compound": "O=c1[nH]ccn1CCNc1cc(-c2ccccc2Oc2ccccc2)ncn1", "viability at 28.5 h, 10 µM, %": 90.4}
{"Compound": "CC(=O)N1c2ccc(NC(=O)C3(C)CCCO3)cc2CC1C (stereo not drawn)", "viability at 28.5 h, 10 µM, %": 98.5}
{"Compound": "CCOC(=O)c1ccc(N2CCN(C(C)=O)CC2)c(NC(=O)c2cccc(F)c2)c1", "viability at 28.5 h, 10 µM, %": 93.8}

# viability at 28.5 h, 10 µM (compound: COCCNc1cc(-c2ccccc2N(C)C)ncn1 ) is 109

Record COc1ccc(C2(C(=O)NCc3ccc4c(c3)OCO4)CC2)cc1 , field viability at 28.5 h, 10 µM: 103

# viability at 28.5 h, 10 µM (compound: O=S(=O)(Nc1cccc(Cl)c1Cl)c1cccc2nsnc12 ) is 86.3

###

- Method notes: in vitro
- Test settings: human, hela cells, % viability
Readout name: viability at 28.5 h, 10 µM (%)
Respond with the bare value in %.

Field: example entries. Status: answers known.
{"Compound": "O=C(/C=C/c1c(Cl)cccc1Cl)Nc1ccc(S(=O)(=O)Nc2ncccn2)cc1 [CBK265490]", "viability at 28.5 h, 10 µM [%]": 98.8}
{"Compound": "CC(C)S(=O)(=O)n1ccn(-c2ccc(Oc3ccccc3)cc2)c1=O [CBK106644]", "viability at 28.5 h, 10 µM [%]": 86.3}
{"Compound": "COc1ccc(-c2cn(-c3ccc(OC)c(OC)c3)nn2)cc1 [CBK113001]", "viability at 28.5 h, 10 µM [%]": 121}
{"Compound": "CC(C)(C)c1cc(CNCCS(=O)(=O)O)c(O)c(C(C)(C)C)c1 [CBK261098]", "viability at 28.5 h, 10 µM [%]": 107}
{"Compound": "CC(C)C(=O)NCCn1nc(-c2ccccc2F)cc1CN(C)C [CBK281693]", "viability at 28.5 h, 10 µM [%]": 91.4}
{"Compound": "NC(=O)NC(Cc1c[nH]c2ccccc12)C(=O)O (stereo not drawn) [CBK218895]", "viability at 28.5 h, 10 µM [%]": 105}
{"Compound": "Cn1c(SCc2cccnc2)nnc1-c1cccs1 [CBK067706]", "viability at 28.5 h, 10 µM [%]": 93.1}
{"Compound": "CCOc1ccc(CCC(=O)N2CCCc3c(cnn3C)C2)cc1 [CBK285276]", "viability at 28.5 h, 10 µM [%]": 85.8}

So for Cc1cc(NC(=O)c2ccc(C(C)(C)C)cc2)nc2c1c(=O)oc1ccccc12 [CBK291200] , the logged viability at 28.5 h, 10 µM turned out to be 120

###

- Method notes: in vitro
- Test settings: human, hela cells, % viability
Readout name: viability at 28.5 h, 10 µM (%)
Express the result in % but write the number alone.

{"Molecule": "CCCC(=O)Nc1ccc(OCc2ncc(C(C)(C)C)o2)c(C(C)=O)c1", "Units text": "%", "Assay value": 86.2}
{"Molecule": "CCNC(=O)c1ccc(-n2cccn2)c(C#Cc2ccccn2)c1", "Units text": "%", "Assay value": 111}
{"Molecule": "COc1ccc(Cl)cc1N1CCN(CC(=O)Nc2ccc(F)c(Cl)c2)CC1", "Units text": "%", "Assay value": 101}
{"Molecule": "CCOC(=O)N1CCC(NC(=O)CCC(=O)O)CC1", "Units text": "%", "Assay value": 91.5}
{"Molecule": "CCN(CC)CC(=O)Nc1ccc(Br)cc1C(=O)c1ccccc1", "Units text": "%", "Assay value": 109}
{"Molecule": "COc1ccccc1C(=O)CN1CCC2(CC1)OCCc1c2[nH]c2ccc(F)cc12", "Units text": "%", "Assay value": 97.6}
{"Molecule": "CCCN1CC(NS(=O)(=O)c2ccc3oc(=O)n(C)c3c2)CC1=O (stereo not drawn)", "Units text": "%", "Assay value": 92.6}
{"Molecule": "Cc1[nH]c2ccccc2c1[C@H]1CC[C@@H](NC(=O)c2ccnn2C)C1", "Units text": "%", "Assay value": 99.8}

For the next question, use this molecule.
Please fill in: viability at 28.5 h, 10 µM reported for Cn1c(N2CCOCC2)cc(=O)c2ccccc21 = 93.7

###

Recorded viability at 28.5 h, 10 µM, one value per entry.
- Method notes: in vitro
- Test settings: human, hela cells, % viability
// return numeric value only (unit: %, not printed)

{"Molecule": "CNC(=O)c1cccnc1N1CCN(CCCC(c2ccc(F)cc2)c2ccc(F)cc2)CC1 [CBK025309C]", "Assay value": 95}
{"Molecule": "Cc1ncccc1-c1csc(C2CCCO2)n1 (stereo not drawn)", "Assay value": 117}

Measured viability at 28.5 h, 10 µM of Cc1ccc(CN2CC[C@H]3NC(=O)c4ccccc4OCC/C=C/C[C@H]3C2)cn1 : 98.6

The molecule COc1ccc(O)c(CN2CCC(N3CCCCC3)CC2)c1 showed viability at 28.5 h, 10 µM equal to 94.9

Query Cc1cc(C)c(S(=O)(=O)Nc2nnc(C)s2)c(C)c1 yields viability at 28.5 h, 10 µM of 87.5

Short answer for COC(=O)c1cn([C@H]2CO[C@H]3[C@@H]2OC[C@@H]3NC(=O)Nc2cccc(C(F)(F)F)c2)nn1 : viability at 28.5 h, 10 µM was 78.9

viability at 28.5 h, 10 µM for COc1cc(Nc2nc(-c3cccc(OC(F)(F)F)c3)cn3ccnc23)cc(OC)c1OC is 101

The molecule identified as O=C/C(=C\Nc1ccc(S(=O)(=O)N2CCCCC2)cc1)c1nc2ccccc2o1 registered its viability at 28.5 h, 10 µM at 99.2

Measured viability at 28.5 h, 10 µM, COC(=O)C(CCSC)NC(=O)c1cccs1 (stereo not drawn) : 94

###

- Method notes: in vitro
- Test settings: human, hela cells, % viability
Readout name: viability at 28.5 h, 10 µM (%)
Numbers only; they are read as %.

Below, 6 compounds whose answers are already recorded.
{"Compound": "COc1cc(C)c(Nc2cc(-c3ccc(CC(C)C)cc3)ncn2)cc1OC [CBK090785]", "Units text": "%", "Assay value": 91.2}
{"Compound": "COc1cnc(-c2cccc(C(F)(F)F)c2)c(NC(=O)Cc2ccccc2)n1 [CBK145308]", "Units text": "%", "Assay value": 104}
{"Compound": "Cc1ccccc1NC(=O)NCc1ccccc1F [CBK105832]", "Units text": "%", "Assay value": 97.4}
{"Compound": "CCN(CC)CCN1CCN(c2cc(-c3cccc4ccccc34)ncn2)CC1 [CBK091196]", "Units text": "%", "Assay value": 99.9}
{"Compound": "Cc1ccsc1C(=O)N1CCC(c2nn(C)c3ncccc23)CC1 [CBK285102]", "Units text": "%", "Assay value": 96.6}
{"Compound": "O=c1ccc2c(-c3ccsc3)ccnc2[nH]1 [CBK073724]", "Units text": "%", "Assay value": 91.5}

The value of viability at 28.5 h, 10 µM measured for the compound CN(CCOc1ccccc1)c1cc(C2CC(N)C2)nc(N)n1 (stereo not shown) [CBK306849] turned out to be 97

###

Overview of recorded viability at 28.5 h, 10 µM for various compounds
- Method notes: in vitro
- Test settings: human, hela cells, % viability
Write down the numeric answer in % and omit the unit.

{"Compound": "CCc1ccc2c(c1)C(CCNC(=O)c1ncccc1F)C(=O)N2 (stereo not shown)", "Readout name": "viability at 28.5 h, 10 µM", "Assay value": 106}

CCC(Sc1nnc2c(n1)[nH]c1ccccc12)C(=O)Nc1sc2c(c1C#N)CCCC2 (stereo not shown) yielded viability at 28.5 h, 10 µM of 80.3

Record O=C(c1cc2cc(F)ccc2[nH]1)N1CCN(c2ncccn2)CC1 , field viability at 28.5 h, 10 µM: 91.8

The recorded viability at 28.5 h, 10 µM for entry Cc1ccccc1C(=O)NC(NC(=S)Nc1sc2c(c1C(N)=O)CCCC2)C(Cl)(Cl)Cl (stereo not shown) equals 97.9

Data point: Cc1ccc(S(=O)(=O)N2CCN(c3ccc(Cl)c(Cl)c3)CC2)c(C)c1 ; viability at 28.5 h, 10 µM = 111

Record summary for CCN(Cc1ccncc1)C(=O)NCc1c(Cl)cccc1Cl : reported viability at 28.5 h, 10 µM = 107

Entry O=C(NCc1ccc(F)cc1)c1ccc(=O)n(CC(=O)N2CCC3(CCCCC3)C2)c1 , viability at 28.5 h, 10 µM reported as 109

Documented viability at 28.5 h, 10 µM of CCOC(=O)c1cc2c3ccccc3n(CC)c2nc1N : 94

Entry c1ccc(N2CCN(Cc3cncn3C3CCCCC3)CC2)nc1 , viability at 28.5 h, 10 µM reported as 109

Just so you know, measured viability at 28.5 h, 10 µM for CCN1CCN(Cc2cc(Cl)ccc2OCCCn2ccnc2)CC1 came out at 83.2
